Molecular target: T1, CRBN, Q96SW2;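 also: pooled lentiviral library of zinc finger degron-EGFP fusions in mCherry-positive Jurkat cells, FACS-sorted after compound exposure, with degron abundance counted by next-generation sequencing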
T1 chain: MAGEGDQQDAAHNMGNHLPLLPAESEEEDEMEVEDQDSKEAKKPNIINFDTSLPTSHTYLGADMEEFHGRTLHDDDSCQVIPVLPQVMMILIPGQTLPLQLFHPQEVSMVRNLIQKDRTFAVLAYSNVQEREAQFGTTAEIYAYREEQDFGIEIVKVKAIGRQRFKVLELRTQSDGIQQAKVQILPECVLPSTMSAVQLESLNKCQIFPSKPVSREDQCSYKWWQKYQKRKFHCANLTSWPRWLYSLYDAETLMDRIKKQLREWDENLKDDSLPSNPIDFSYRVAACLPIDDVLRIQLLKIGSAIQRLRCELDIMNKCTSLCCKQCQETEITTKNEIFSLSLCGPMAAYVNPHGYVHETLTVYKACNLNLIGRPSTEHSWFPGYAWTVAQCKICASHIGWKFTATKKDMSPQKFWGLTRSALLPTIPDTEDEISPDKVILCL
Assay: log2 fold change of degron read counts, EGFP-low vs EGFP+ sorted cells (limma voom), compound-induced degradation; higher = more compound-induced degradation of the degron-EGFP fusion; degrons are variants of IKZF1/3 zinc finger 2; compound dose not given here
Details: Jurkat; 18 h; compound: thalidomide
Over roughly 8,300 sequences, “log2 fold change of degron read counts, EGFP-low vs EGFP+ sorted cells (limma voom), compound-induced degradation” has its median near -1.1; the highest 2% begin near 3.2. The sample as a whole holds a higher share of the highest values than the screen did.
Record 1 whenever log2 fold change of degron read counts is at 1 or higher; record 0 when lower.

Input: hey, is log2 fold change of degron read counts for this one >= 1? FRCDVCGAEFTQKGNLLRHIKL [46F_47R_49D_50V_52G_53A_54E_55F_67L_, Q9UKT9]
Output: 0

Input: hey, is log2 fold change of degron read counts for this one >= 1? LFCPICGFVCTQKGNLLRHIKL [46L_47F_49P_50I_52G_53F_54V_55C_67L_, Q9UKT9]
Output: 1

Input: hey, is log2 fold change of degron read counts for this one >= 1? LDCPICGFTCTQKGNLLRHIKL [46L_47D_49P_50I_52G_53F_54T_55C_67L_, Q9UKT9]
Output: 1

Input: hey, is log2 fold change of degron read counts for this one >= 1? FGCPICGHWFTQKGNLLRHIKL [46F_47G_49P_50I_52G_53H_54W_55F_67L_, Q9UKT9]
Output: 0

Input: hey, is log2 fold change of degron read counts for this one >= 1? FECNQCGRDFTQKGNLLRHIKL [46F_47E_49N_50Q_52G_53R_54D_55F_67L_, Q9UKT9]
Output: 0

Input: hey, is log2 fold change of degron read counts for this one >= 1? FKCNVCGASFTQKGNLLRHIKL [46F_47K_49N_50V_52G_53A_54S_55F_67L_, Q9UKT9]
Output: 0

Input: hey, is log2 fold change of degron read counts for this one >= 1? LNCPICGFTCTQKGNLLRHIKL [46L_47N_49P_50I_52G_53F_54T_55C_67L_, Q9UKT9]
Output: 1
